- ASSAYED SYSTEM: hCA IX (Homo sapiens, UniProt Q16790)
- EXPERIMENT DESCRIPTION: Stopped flow CO2 hydrase assay
- STATED CONDITIONS: Ki hCA I / Ki hCA IX
Property: Selectivity ratio I/IX; scope: individual compounds
// keep it numeric: no unit symbol after the value

See these solved cases before continuing.
[[record]]
compound = "O=C1Nc2ccccc2C1=CNc1ccc(CNc2ccc(S(=O)(=O)Nc3ncccn3)cc2)cc1 [Compound 11b]"
experimental_value = 1.16

[[record]]
compound = "NS(=O)(=O)c1ccc(NC(=O)c2ccc(NC=C3C(=O)Nc4ccccc43)cc2)cc1"
experimental_value = 4.83

[[record]]
compound = "NS(=O)(=O)c1ccc(NC(=O)Nc2ccc(NC=C3C(=O)Nc4ccccc43)cc2)cc1 [Compound 15a]"
experimental_value = 0.98

[[record]]
compound = "NS(=O)(=O)N/C=C1/C(=O)Nc2ccccc21 [Compound 5, 3-(sulfamidmethylene)indoline-2-one]"
experimental_value = 30.48

[[record]]
compound = "NS(=O)(=O)c1ccc(NC=CC(=O)c2ccc(NC=C3C(=O)Nc4ccccc43)cc2)cc1 [Compound 13a]"
experimental_value = 5.29

[[record]]
compound = "NS(=O)(=O)c1ccc(NCc2ccc(NC=C3C(=O)Nc4ccccc43)cc2)cc1 [Compound 11a]"
experimental_value = 1.48

[[record]]
compound = "NS(=O)(=O)OC=C1C(=O)Nc2ccccc21 [Compound 7, (2-Oxoindolin-3-ylidene)methyl sulfamate]"
experimental_value = 6.63


What the record says about `NS(=O)(=O)c1nnc(NC=C2C(=O)Nc3ccccc32)s1` : Selectivity ratio I/IX is 0.100
